# assay procedure: Half life in rat at 2 mg/kg, iv and 10 mg/kg, po
# Assay type: ADME, organism-based
# test conditions: in vivo
parameter: half-life (h)
Supply the numeric figure in h, leaving out any unit text.

### Prompt Look at this molecule and give its reported half-life. `Cc1cc(C)cc(-c2cnc3cc(Cl)c(-c4cnn(C)c4)cc3c2OCC[C@H]2CCCCN2)c1`
### Response 3.7

###

# assay procedure: Volume of distribution at steady state in rat at 2 mg/kg, iv and 5 mg/kg, po
# Type: ADME, organism-based
# test conditions: in vivo, read-out: Vdss
parameter: Vd (L/kg)
Supply the numeric figure in L/kg, leaving out any unit text.

### Prompt Look at this compound and give its reported Vd. `Cc1cc(C)cc(-c2cnc3cc(Cl)c(-c4cccc(O)c4)cc3c2OCCCN)c1`
### Response 9.4

###

# measurement target: Gonadotropin-releasing hormone receptor (Homo sapiens, UniProt P30968)
# Sequence (P30968 whole entry): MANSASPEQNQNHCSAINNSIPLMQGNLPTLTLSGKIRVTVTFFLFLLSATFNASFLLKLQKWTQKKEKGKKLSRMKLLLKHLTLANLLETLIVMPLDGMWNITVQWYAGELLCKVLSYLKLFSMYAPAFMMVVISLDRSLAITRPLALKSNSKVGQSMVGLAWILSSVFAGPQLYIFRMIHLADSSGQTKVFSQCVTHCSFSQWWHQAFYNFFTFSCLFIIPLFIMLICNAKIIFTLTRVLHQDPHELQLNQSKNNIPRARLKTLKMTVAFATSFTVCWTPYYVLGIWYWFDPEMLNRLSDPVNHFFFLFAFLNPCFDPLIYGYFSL
# assay procedure: Antagonist activity at GnRH receptor by GnRH
Hi there, I'd appreciate the recorded pIC50 for every entry that follows.
On this scale, pIC50 is minus log10 of a concentration expressed in M (mol/L).

### Prompt Look at this compound and give its reported pIC50. `Cc1cc(C)cc(-c2cnc3cc(Cl)c(C(=O)Nc4ccncn4)cc3c2OCC[C@H]2CCCCN2)c1`
### Response 5.61

### Prompt Look at this compound and give its reported pIC50. Cc1cc(C)cc(-c2c(OCCC3CCCCN3)c3cc(-c4ccncn4)c(Cl)cc3[nH]c2=O)c1 (configuration not stated)
### Response 8.49

###

# assay procedure: Volume of distribution at steady state in dog at 0.125 mg/kg, iv
# Type: ADME, organism-based, Canis lupus familiaris
# Set-up: dose 0.125 mg/kg, route intravenous
# test conditions: in vivo, read-out: Vdss
parameter: Vd (L/kg)
Supply the numeric figure in L/kg, leaving out any unit text.

### Prompt Look at this compound and give its reported Vd. `Cc1cc(C)cc(-c2cnc3cc(Cl)c(-c4cccc(O)c4)cc3c2OCCCN)c1`
### Response 5.7

###

# assay procedure: Plasma clearance in rat at 2 mg/kg, iv and 10 mg/kg, po
# Type: ADME, organism-based
parameter: clearance (L/h/kg)
Supply the numeric figure in L/h/kg, leaving out any unit text.

### Prompt Look at this compound and give its reported clearance. `Cc1cc(C)cc(-c2cnc3cc(Cl)c(-c4cnn(C)c4)cc3c2OCC[C@H]2CCCCN2)c1`
### Response 0.84

###

# assay procedure: Plasma clearance in rat at 2 mg/kg, iv and 5 mg/kg, po
# Type: ADME, organism-based
parameter: clearance (mL/min/kg)
Supply the numeric figure in mL/min/kg, leaving out any unit text.

### Prompt Look at this compound and give its reported clearance. `Cc1cc(C)cc(-c2cnc3cc(Cl)c(-c4cccc(O)c4)cc3c2OCCCN)c1`
### Response 52

###

# assay procedure: Plasma clearance in dog at 0.125 mg/kg, iv
# Assay type: ADME, organism-based, Canis lupus familiaris
# Design: dose 0.125 mg/kg, route intravenous
parameter: clearance (mL/min/kg)
Supply the numeric figure in mL/min/kg, leaving out any unit text.

### Prompt Look at this compound and give its reported clearance. `Cc1cc(C)cc(-c2cnc3cc(Cl)c(-c4cccc(O)c4)cc3c2OCCCN)c1`
### Response 7.1

###

# measurement target: Somatostatin receptor type 2 (Homo sapiens)
# Sequence (P30874 whole entry): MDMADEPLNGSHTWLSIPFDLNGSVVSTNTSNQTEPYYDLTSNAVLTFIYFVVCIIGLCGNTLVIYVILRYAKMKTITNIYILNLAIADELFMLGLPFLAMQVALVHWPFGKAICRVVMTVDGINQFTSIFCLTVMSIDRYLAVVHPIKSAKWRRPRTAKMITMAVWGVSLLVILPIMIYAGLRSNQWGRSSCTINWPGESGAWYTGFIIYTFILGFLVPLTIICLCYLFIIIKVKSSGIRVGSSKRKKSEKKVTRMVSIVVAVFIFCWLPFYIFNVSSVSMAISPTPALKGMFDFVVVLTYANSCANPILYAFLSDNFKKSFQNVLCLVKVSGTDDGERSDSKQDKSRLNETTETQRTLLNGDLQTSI
# assay procedure: Agonist activity at human SST2 expressed in CHO cells assessed as inhibition of forskolin-stimulated cAMP release after 40 mins by luminescence assay
hey, just use Fulfilled if measured IC50 is less than 5 nM, otherwise Not fulfilled

### Prompt Lab note: confirm whether the reported IC50 for this compound is below 5 nM, equality not counting. compound: `Cn1cc(-c2cc3c(OCC[C@H]4CCCCN4)c(-c4cccc(CO)c4)cnc3cc2Cl)cn1`
### Response Not fulfilled

### Prompt Lab note: confirm whether the reported IC50 for this compound is below 5 nM, equality not counting. compound: `Cc1cc(C)cc(-c2cnc3cc(Cl)c(-c4ccc(N)nc4)cc3c2OCC[C@H]2CCCCN2)c1`
### Response Not fulfilled

### Prompt Lab note: confirm whether the reported IC50 for this compound is below 5 nM, equality not counting. compound: `Cc1cc(C)cc(-c2cnc3cc(Cl)c(-c4cccc(C(N)=O)c4)cc3c2OCCCN)c1`
### Response Fulfilled

### Prompt Lab note: confirm whether the reported IC50 for this compound is below 5 nM, equality not counting. compound: `Cc1cc(C)cc(-c2cnc3cc(Cl)c(-c4cccc(O)c4)cc3c2OCCCN)c1`
### Response Fulfilled

### Prompt Lab note: confirm whether the reported IC50 for this compound is below 5 nM, equality not counting. compound: `COc1ccc(-c2cc3c(OCC[C@H]4CCCCN4)c(-c4cc(C)cc(C)c4)cnc3cc2Cl)cn1`
### Response Not fulfilled

### Prompt Lab note: confirm whether the reported IC50 for this compound is below 5 nM, equality not counting. compound: `OCc1cccc(-c2ccc3ncc(-c4cccc(CO)c4)c(OCC[C@H]4CCCCN4)c3c2)c1`
### Response Not fulfilled

### Prompt Lab note: confirm whether the reported IC50 for this compound is below 5 nM, equality not counting. compound: `Cc1cc(C)cc(-c2cnc3cc(Cl)c(-c4ccncc4)cc3c2OCC[C@H]2CCCCN2)c1`
### Response Not fulfilled

### Prompt Lab note: confirm whether the reported IC50 for this compound is below 5 nM, equality not counting. compound: `Cc1cc(C)cc(-c2cnc3cc(Cl)c(-c4ccc(F)nc4)cc3c2OCC[C@H]2CCCCN2)c1`
### Response Fulfilled

### Prompt Lab note: confirm whether the reported IC50 for this compound is below 5 nM, equality not counting. compound: `Cc1cc(C)cc(-c2cnc3cc(Cl)c(-c4ccc(O)cc4)cc3c2OCC[C@H]2CCCCN2)c1`
### Response Fulfilled

### Prompt Lab note: confirm whether the reported IC50 for this compound is below 5 nM, equality not counting. compound: `Cc1cc(C)cc(-c2cnc3cc(Cl)c(-c4ccc(=O)[nH]c4)cc3c2OCC[C@H]2CCCCN2)c1`
### Response Fulfilled

### Prompt Lab note: confirm whether the reported IC50 for this compound is below 5 nM, equality not counting. compound: `Cc1cc(C)cc(-c2cnc3cc(Cl)c(-c4ccc(CO)cc4)cc3c2OCC[C@H]2CCCCN2)c1`
### Response Not fulfilled
